Consider the following compounds; for each one, report its GI50.
# Tested on: SR
# test-method-notes: NCI tumour cell line growth inhibition, 48 h
Active and inactive are the calls of the source. No stated cut-off is given here; in the data, active = GI50 up to about 1.1 µM and inactive = higher.

Please report GI50 for the following compound: COc1ccc(N2C(N)=C(C#N)C(C#N)(C#N)C2c2cccc([N+](=O)[O-])c2)cc1 (stereo not drawn) 8.47 µM (inactive)

Fill in GI50 for record O=C(O)CCC(NC(=O)c1ccc(CNc2nc3cc(C(F)(F)F)ccc3nc2C(=O)O)cc1)C(=O)O (stereo not drawn) > 100 µM (inactive)

Consider the compound COC(=O)C1=C(OC(=O)/C(=C/c2ccccc2)c2ccc(OC)cc2)C(C(=O)OC)[C@@]2(O)[C@@H](C(=O)OC)[C@H](C)C[C@@H]1[C@@H]2C(=O)OC (stereo partly drawn) and give its recorded GI50. > 100 µM (inactive)

Answer with the recorded GI50 of CC(C)(C)c1cc(C(=O)/C=C/c2c(Cl)cccc2Cl)cc(C(C)(C)C)c1O only. 3.86 µM (inactive)

Determine from records and report GI50 for Cc1cc2c(cc1C)[n+]([O-])c(C(=O)/C=C/c1ccc3c(c1)OCO3)c(C)[n+]2[O-] > 100 µM (inactive)

Determine its reported GI50: COC(=O)C1Cc2c([nH]c3ccccc23)C(c2cccc(O)c2)N1 (stereo not drawn) 28.2 µM (inactive)

Quote GI50 reported for COc1ccc(Nc2nc3c([nH]2)c(=O)n(C)c(=O)n3C)cc1 please. > 10 µM (inactive)

Using the record for COC(=O)C(=O)C(C(=O)C(=O)Nc1cc([N+](=O)[O-])ccc1C#N)c1nc2ccccc2nc1O (stereo not drawn) , state its measured GI50. > 100 µM (inactive)
